Data credit: the NIST ThermoML archive (doi:10.1021/je050402s)

# Assay Comment: xn = mol fraction of the nth substance listed
# Measurement Context: 288.15 K; 100.5 kPa; Liquid; Capillary tube (Ostwald / Ubbelohde) method; x1 = 0.2
Assay Metric: viscosity (mPa·s)

1) CCC(=O)OCc1ccccc1 [benzyl propanoate] + CCO: 1.466
2) COC(=O)c1ccccc1 [methyl benzoate] + CCO: 1.359
3) CCOC(=O)CC(C)C [ethyl 3-methylbutanoate] + CCO: 1.002
4) CCOC(=O)CC(C)=O [ethyl 3-oxobutanoate] + CCO: 1.194
5) CC(=O)OCc1ccccc1 [benzyl ethanoate] + CCO: 1.393

* * *

# Assay Comment: xn = mol fraction of the nth substance listed
# Measurement Context: 288.15 K; 100.5 kPa; Liquid; x1 = 0.2
Assay Metric: mass density (kg/m3)

1. CC(=O)OCc1ccccc1 [benzyl ethanoate] + CCO: 897.58
2. CCOC(=O)c1ccccc1O [ethyl 2-hydroxybenzoate] + CCO: 928.98
3. CCC(=O)OCc1ccccc1 [benzyl propanoate] + CCO: 894.95
4. CCOC(=O)CC(C)C [ethyl 3-methylbutanoate] + CCO: 823.05
5. CCOC(=O)CC(C)=O [ethyl 3-oxobutanoate] + CCO: 878.93
6. COC(=O)c1ccccc1 [methyl benzoate] + CCO: 901.63
